# System: NCI-H322M lung
# Assay name: NCI-60 one-dose screen, 48 h (100 = growth as untreated, 0 = no growth, -100 = all killed)
# Reported conditions: 10 µM unless noted
The panel holds about 83,000 compounds, 20% with a hit somewhere; the sample as a whole holds those more often.
Overview of recorded growth for various compounds
Outcome measure: growth (%)

Compound: COc1ccc(CCCc2c3[n+](cc4c(OC)c(OC)ccc24)CCc2cc4c(cc2-3)OCO4)cc1
Experimental system: NCI-H322M lung
Unit symbol: %
Numeric readout: 96.1

Compound: O=C1OCC2=C1C(c1cccc(F)c1)c1cc3c(cc1N2CCO)OCCO3 (configuration not stated)
Experimental system: NCI-H322M lung
Unit symbol: %
Numeric readout: 45.3

Compound: Ic1ccccc1-c1ccccc1
Experimental system: NCI-H322M lung
Unit symbol: %
Numeric readout: 114

Compound: COc1ccc(-c2ccc3ncc4c(c3c2)n(-c2ccc(N3CCNCC3)c(C(F)(F)F)c2)c(=O)n4C)cn1
Experimental system: NCI-H322M lung
Unit symbol: %
Numeric readout: -89.6

Compound: O=C1C=CC2(NN=C(c3ccccc3)N2c2ccccc2)c2cccc(O)c21 (configuration not stated)
Experimental system: NCI-H322M lung
Unit symbol: %
Numeric readout: 83.9

Compound: CO[C@H]1C[C@@H]2CC[C@@H](C)[C@@](O)(O2)C(=O)C(=O)N2CCCC[C@H]2C(=O)O[C@H]([C@H](C)C[C@@H]2CC[C@@H](OCCO)[C@H](OC)C2)CC(=O)[C@H](C)/C=C(\C)[C@@H](O)[C@H](OC)C(=O)[C@H](C)C[C@H](C)\C=C/C=C/C=C/1C
Experimental system: NCI-H322M lung
Unit symbol: %
Numeric readout: 44.9

Compound: COC(=O)[C@H](Cc1ccccc1)NC(=O)[C@@H](OC)[C@@H]1Cc2cc3cc(OC4CC(OC5CC(O)C(O)C(C)O5)C(O)C(C)O4)c(C)c(O)c3c(O)c2C(=O)[C@H]1OC1CC(OC2CC(OC3CC(C)(O)C(O)C(C)O3)C(O)C(C)O2)C(O)C(C)O1 (some centres not stated)
Experimental system: NCI-H322M lung
Unit symbol: %
Numeric readout: 7.54

====

# Tested on: A549/ATCC NSCLC
# Assay name: NCI-60 one-dose screen, 48 h (100 = growth as untreated, 0 = no growth, -100 = all killed)
# Reported conditions: 10 µM unless noted
Compounds without any hit were thinned out: in the full panel of roughly 83,000, 20% have a hit.
Outcome measure: growth (%)

Molecule: CCOc1cccc(/C=N/NC(=O)c2ccccc2Nc2ccnc(C(F)(F)F)c2)c1O
Numeric readout: 15
//
Molecule: O=C(c1ccccc1)C(c1ccccc1)N1CCOCC1 (stereo unspecified)
Numeric readout: 90.2
//
Molecule: CC1(/C=N/NC(N)=S)NC(=O)NC1=O (stereo unspecified)
Numeric readout: 72.4
//
Molecule: COc1cc(-c2nc(C(=O)NCC(=O)O)nn2-c2ccc(Cl)cc2)cc(OC)c1OC
Numeric readout: 96.6
//
Molecule: CCCCCCCC(=O)SCC/C=C/[C@@H]1CC(=O)NCc2nc(co2)C2=N[C@@](C)(CS2)C(=O)N[C@@H](C(C)C)C(=O)O1
Numeric readout: -2.81
//
Molecule: Clc1ccc2c(NCCCNCc3ccc4c(c3)OCO4)ccnc2c1
Numeric readout: 51.2
//
Molecule: Cn1cnc2c(F)c(Nc3ccc(Br)cc3Cl)c(C(=O)NOCCO)cc21
Numeric readout: 35.8
//
Molecule: COC[C@@H](C)n1c(C2CCOCC2)nc2c1C1C=C(OC)C(c3c(C)noc3C)=CC1N=C2 (stereo partly specified)
Numeric readout: 42.6
//
Molecule: C/C(=C(/c1ccc(Cl)cc1)c1ccc(OCCN2CCCC2)cc1)c1ccccc1
Numeric readout: 66.7
//
Molecule: COc1cc(C(=O)NNC(=O)c2ccc(NC(=O)CCl)cc2)cc(OC)c1OC
Numeric readout: 77
//
Molecule: COc1cc(Nc2c(C#N)cnc3cc(OCCCN4CCN(C)CC4)c(OC)cc23)c(Cl)cc1Cl
Numeric readout: 36.1
//
Molecule: CCN(CC)CCNC(=O)c1c(C)[nH]c(/C=C2\C(=O)Nc3ccc(F)cc32)c1C
Numeric readout: 0.0489
//
Molecule: CCCCCCCC12Cc3ccccc3C1=Nc1c(c3ccccc3n1C)C2=O (stereo unspecified)
Numeric readout: 75.5
//
Molecule: O=C(NOCCO)c1ccc2cncn2c1Nc1ccc(I)cc1F
Numeric readout: 25.4
//
Molecule: C=CCN(/C=C1/C(=O)O[C@H](COC)[C@@]2(C)C1=C(O)C(=O)C1=C2[C@H](OC(C)=O)C[C@]2(C)C(=O)CC[C@@H]12)CC=C
Numeric readout: 4.59
//
Molecule: Cc1sc2c(c1C)c(=O)nc1c(-c3nc(-c4ccccc4)cs3)n[nH]n12
Numeric readout: 93
//
Molecule: COc1cc2ncnc3c2cc1OCCCCCN(C)Cc1ccc(Br)cc1N3
Numeric readout: 35.1
//
Molecule: CCCCCCCC(=O)SCC/C=C/[C@@H]1CC(=O)NCc2cccc(n2)C2=N[C@@](C)(CS2)C(=O)N[C@@H](C(C)C)C(=O)N1
Numeric readout: 15.4
//
Molecule: CSc1nc2ncncc2[nH]1
Numeric readout: 103
//
Molecule: C=CC(=O)Nc1cc(Nc2nccc(-c3cn(C)c4ccccc34)n2)c(OC)cc1N(C)CCN(C)C
Numeric readout: -43.5
//
Molecule: Cc1cc2c(-c3nc4ccccn4c3N)c(O)c(O)cc2c(O)c1-c1c(C)cc2c(-c3nc4ccccn4c3N)c(O)c(O)cc2c1O
Numeric readout: 16.4
//
Molecule: COc1ccc(-c2cnc(-c3ccc(Cl)cc3)[nH]2)cc1OC
Numeric readout: 105
//
Molecule: COc1cc2c(c(OC)c1)C1c3ccccc3NC(=O)N1CC2 (stereo unspecified)
Numeric readout: 22.7
//
Molecule: Cc1cn(-c2cc(NC(=O)c3ccc(C)c(Nc4nccc(-c5cccnc5)n4)c3)cc(C(F)(F)F)c2)cn1
Numeric readout: 45.5
//
Molecule: COc1cc2ncnc(Nc3ccc(F)c(Cl)c3)c2cc1NC(=O)/C=C/CN1CCCCC1
Numeric readout: -76.9
//
Molecule: Nc1ccc(S(=O)(=O)O)c2cc(S(=O)(=O)O)cc(O)c12
Numeric readout: 104
